Test system: Jurkat (T-Lymphoblastic Leukemia)
run_description: Bliss excess, mean over the matrix (fraction); higher = more synergy
The following molecules are listed with their measured Bliss excess values.
property: Bliss excess

| molecule | reported_value |
| --- | --- |
| CC1(C)CCC(CN2CCN(c3ccc(C(=O)NS(=O)(=O)c4ccc(NCC5CCOCC5)c([N+](=O)[O-])c4)c(Oc4cnc5[nH]ccc5c4)c3)CC2)=C(c2ccc(Cl)cc2)C1 [Venetoclax] + Cn1cnc2c(F)c(Nc3ccc(Br)cc3Cl)c(C(=O)NOCCO)cc21 [Selumetinib] (first compound max 1 µM, 7x7, partner max 3 µM) | 0.0054 |
| NC1(C(=O)N[C@@H](CCO)c2ccc(Cl)cc2)CCN(c2ncnc3[nH]ccc23)CC1 [Capivasertib] + Cn1cnc2c(F)c(Nc3ccc(Br)cc3Cl)c(C(=O)NOCCO)cc21 [Selumetinib] (first compound max 10 µM, 7x7, partner max 10 µM) | 0.009 |
| COc1nnc2ccc(N3CCC(c4ccc(OCCN5CCN(C)C(=O)[C@H]5C)cc4)CC3)nn12 [AZD5153] + Cc1c2c(nn1C)CSCc1cc(n(C)n1)CSc1cc(c3ccccc3c1)OCCCc1c(C(=O)O)n(C)c3c-2c(Cl)ccc13 [AZD5991] (first compound max 1 µM, 7x7, partner max 1 µM) | 0.0006 |

====

Tested on: KYSE-140 (Esophageal Squamous Cell Carcinoma)
run_description: Bliss excess, mean over the matrix (fraction); higher = more synergy
Let's look at some compounds and their measured Bliss excess.
property: Bliss excess

| compound | reported_value |
| --- | --- |
| CCN(CCO)CCCOc1ccc2c(Nc3cc(CC(=O)Nc4cccc(F)c4)[nH]n3)ncnc2c1 [AZD2811] + C=CCn1c(=O)c2cnc(Nc3ccc(N4CCN(C)CC4)cc3)nc2n1-c1cccc(C(C)(C)O)n1 [AZD1775] (first compound max 1 µM, partner max 1 µM) | -0.0155 |
| Cc1c2c(nn1C)CSCc1cc(n(C)n1)CSc1cc(c3ccccc3c1)OCCCc1c(C(=O)O)n(C)c3c-2c(Cl)ccc13 [AZD5991] + Cn1cnc2c(F)c(Nc3ccc(Br)cc3Cl)c(C(=O)NOCCO)cc21 [Selumetinib] (first compound max 1 µM, 7x7, partner max 3 µM) | -0.015 |

====

Tested on: LS-411N (Colorectal Carcinoma)
run_description: Bliss excess, mean over the matrix (fraction); higher = more synergy
Overview of reported Bliss excess across a group of compounds:

| compound | Bliss excess |
| --- | --- |
| CN(CCO)CC[C@H](CSc1ccccc1)Nc1ccc(S(=O)(=O)NC(=O)c2ccc(N3CCC([C@@H](O)c4ccccc4-c4ccc(Cl)cc4)CC3)cc2)cc1S(=O)(=O)C(F)(F)F [AZD4320] + CN(C)CCCOc1ccc(-c2ccc3ncc4c(c3c2)n(C2CCOCC2)c(=O)n4C)cn1 [AZD0156] (first compound max 1 µM, 7x7, partner max 1 µM) | -0.0009 |
| COc1cccc(OCCCN)c1-c1cc(Nc2cnc(C#N)cn2)n[nH]1 [Prexasertib] + CCc1c2c(nc3ccc(O)cc13)-c1cc3c(c(=O)n1C2)COC(=O)[C@]3(O)CC [SN-38] (first compound max 1 µM, 7x7, partner max 0.3 µM) | 0.0331 |
| C=CCn1c(=O)c2cnc(Nc3ccc(N4CCN(C)CC4)cc3)nc2n1-c1cccc(C(C)(C)O)n1 [AZD1775] + O=C(c1cc(Cc2n[nH]c(=O)c3ccccc23)ccc1F)N1CCN(C(=O)C2CC2)CC1 [Olaparib] (first compound max 1 µM, partner max 10 µM) | -0.0608 |
| CN(C)CCCOc1ccc(-c2ccc3ncc4c(c3c2)n(C2CCOCC2)c(=O)n4C)cn1 [AZD0156] + C=CCn1c(=O)c2cnc(Nc3ccc(N4CCN(C)CC4)cc3)nc2n1-c1cccc(C(C)(C)O)n1 [AZD1775] (first compound max 1 µM, partner max 1 µM) | -0.0042 |
| CC1(C)CCC(CN2CCN(c3ccc(C(=O)NS(=O)(=O)c4ccc(NCC5CCOCC5)c([N+](=O)[O-])c4)c(Oc4cnc5[nH]ccc5c4)c3)CC2)=C(c2ccc(Cl)cc2)C1 [Venetoclax] + Cn1cnc2c(F)c(Nc3ccc(Br)cc3Cl)c(C(=O)NOCCO)cc21 [Selumetinib] (first compound max 1 µM, 7x7, partner max 3 µM) | -0.0148 |

====

Test system: 5637 (Bladder Carcinoma)
run_description: combination Emax (second highest fraction inhibited in the dose matrix, 72 h); higher = more inhibition; extreme values may be limits of the assay

| compound | combination Emax |
| --- | --- |
| COc1nnc2ccc(N3CCC(c4ccc(OCCN5CCN(C)C(=O)[C@H]5C)cc4)CC3)nn12 [AZD5153] + CN(CC[C@H](CSC1=CC=CC=C1)NC2=C(C=C(C=C2)S(=O)(=O)NC(=O)C3=CC=C(C=C3)N4CCC(CC4)[C@H](C5=CC=CC=C5C6=CC=C(C=C6)Cl)O)S(=O)(=O)C(F)(F)F)CCO [AZD4320] (first compound max 1 µM, 7x7, partner max 1 µM) | 0.957 |
| COc1cccc(OCCCN)c1-c1cc(Nc2cnc(C#N)cn2)n[nH]1 [Prexasertib] + C[C@@H]1COCCN1C2=NC(=NC(=C2)C3(CC3)[S@](=N)(=O)C)C4=C5C=CNC5=NC=C4 [AZD6738] (first compound max 1 µM, 7x7, partner max 10 µM) | 0.845 |

====

System: A204 (Rhabdomyosarcoma)
run_description: combination Emax (second highest fraction inhibited in the dose matrix, 72 h); higher = more inhibition; extreme values may be limits of the assay
property: combination Emax

| compound | property | reported_value |
| --- | --- | --- |
| Cc1cc2ncnn2cc1Nc1ncc2c(n1)n(C1CCOCC1)c(=O)n2C [AZD7648] + C=CCn1c(=O)c2cnc(Nc3ccc(N4CCN(C)CC4)cc3)nc2n1-c1cccc(C(C)(C)O)n1 [AZD1775] (first compound max 10 µM, partner max 1 µM) | combination Emax | 0.43 |
| C[C@@H]1COCCN1c1cc(C2([S@](C)(=N)=O)CC2)nc(-c2ccnc3[nH]ccc23)n1 [AZD6738] + O=C(c1cc(Cc2n[nH]c(=O)c3ccccc23)ccc1F)N1CCN(C(=O)C2CC2)CC1 [Olaparib] (first compound max 10 µM, 7x7, partner max 10 µM) | combination Emax | 0.417 |
| CC1(C)CCC(CN2CCN(c3ccc(C(=O)NS(=O)(=O)c4ccc(NCC5CCOCC5)c([N+](=O)[O-])c4)c(Oc4cnc5[nH]ccc5c4)c3)CC2)=C(c2ccc(Cl)cc2)C1 [Venetoclax] + CN(C)CCCOc1ccc(-c2ccc3ncc4c(c3c2)n(C2CCOCC2)c(=O)n4C)cn1 [AZD0156] (first compound max 1 µM, 7x7, partner max 1 µM) | combination Emax | 0.31 |
| CN(CCO)CC[C@H](CSc1ccccc1)Nc1ccc(S(=O)(=O)NC(=O)c2ccc(N3CCC([C@@H](O)c4ccccc4-c4ccc(Cl)cc4)CC3)cc2)cc1S(=O)(=O)C(F)(F)F [AZD4320] + Cn1cnc2c(F)c(Nc3ccc(Br)cc3Cl)c(C(=O)NOCCO)cc21 [Selumetinib] (first compound max 1 µM, 7x7, partner max 3 µM) | combination Emax | 0.325 |

====

Test system: Jurkat (T-Lymphoblastic Leukemia)
run_description: combination Emax (second highest fraction inhibited in the dose matrix, 72 h); higher = more inhibition; extreme values may be limits of the assay
# combination Emax annotations
property: combination Emax

| molecule | assayed_system | reported_value |
| --- | --- | --- |
| Cc1cc2ncnn2cc1Nc1ncc2c(n1)n(C1CCOCC1)c(=O)n2C [AZD7648] + C[C@@H]1COCCN1C2=NC(=NC(=C2)C3(CC3)[S@](=N)(=O)C)C4=C5C=CNC5=NC=C4 [AZD6738] (first compound max 10 µM, 7x7, partner max 10 µM) | Jurkat (T-Lymphoblastic Leukemia) | 0.814 |
| CCN(CCO)CCCOc1ccc2c(Nc3cc(CC(=O)Nc4cccc(F)c4)[nH]n3)ncnc2c1 [AZD2811] + O=C(c1cc(Cc2n[nH]c(=O)c3ccccc23)ccc1F)N1CCN(C(=O)C2CC2)CC1 [Olaparib] (first compound max 1 µM, 7x7, partner max 10 µM) | Jurkat (T-Lymphoblastic Leukemia) | 0.384 |
| COc1nnc2ccc(N3CCC(c4ccc(OCCN5CCN(C)C(=O)[C@H]5C)cc4)CC3)nn12 [AZD5153] + CCN(CCO)CCCOc1ccc2c(Nc3cc(CC(=O)Nc4cccc(F)c4)[nH]n3)ncnc2c1 [AZD2811] (first compound max 1 µM, 7x7, partner max 1 µM) | Jurkat (T-Lymphoblastic Leukemia) | 0.745 |
| CC(=O)Nc1cccc(-n2c(=O)n(C3CC3)c(=O)c3c(Nc4ccc(I)cc4F)n(C)c(=O)c(C)c32)c1 [Trametinib] + Cc1nc(-c2cn3c(n2)-c2ccc(-c4cnn(C(C)(C)C(N)=O)c4)cc2OCC3)n(C(C)C)n1 [Taselisib] (first compound max 1 µM, 7x7, partner max 10 µM) | Jurkat (T-Lymphoblastic Leukemia) | 0.692 |
| CN(CCO)CC[C@H](CSc1ccccc1)Nc1ccc(S(=O)(=O)NC(=O)c2ccc(N3CCC([C@@H](O)c4ccccc4-c4ccc(Cl)cc4)CC3)cc2)cc1S(=O)(=O)C(F)(F)F [AZD4320] + C=CCn1c(=O)c2cnc(Nc3ccc(N4CCN(C)CC4)cc3)nc2n1-c1cccc(C(C)(C)O)n1 [AZD1775] (first compound max 1 µM, partner max 1 µM) | Jurkat (T-Lymphoblastic Leukemia) | 0.993 |
| C[C@@H](c1ccc2nccn2c1)n1nnc2ncc(-c3cnn(C)c3)nc21 [Savolitinib] + CC1(C)CCC(CN2CCN(c3ccc(C(=O)NS(=O)(=O)c4ccc(NCC5CCOCC5)c([N+](=O)[O-])c4)c(Oc4cnc5[nH]ccc5c4)c3)CC2)=C(c2ccc(Cl)cc2)C1 [Venetoclax] (first compound max 1 µM, 7x7, partner max 1 µM) | Jurkat (T-Lymphoblastic Leukemia) | 0.188 |
| C[C@@H](c1ccc2nccn2c1)n1nnc2ncc(-c3cnn(C)c3)nc21 [Savolitinib] + Cc1c2c(nn1C)CSCc1cc(n(C)n1)CSc1cc(c3ccccc3c1)OCCCc1c(C(=O)O)n(C)c3c-2c(Cl)ccc13 [AZD5991] (first compound max 1 µM, 7x7, partner max 1 µM) | Jurkat (T-Lymphoblastic Leukemia) | 0.575 |
